- TARGET SYSTEM: human TLR7 (Homo sapiens (Human), UniProt Q9NYK1)
- Sequence (Q9NYK1 27-1049): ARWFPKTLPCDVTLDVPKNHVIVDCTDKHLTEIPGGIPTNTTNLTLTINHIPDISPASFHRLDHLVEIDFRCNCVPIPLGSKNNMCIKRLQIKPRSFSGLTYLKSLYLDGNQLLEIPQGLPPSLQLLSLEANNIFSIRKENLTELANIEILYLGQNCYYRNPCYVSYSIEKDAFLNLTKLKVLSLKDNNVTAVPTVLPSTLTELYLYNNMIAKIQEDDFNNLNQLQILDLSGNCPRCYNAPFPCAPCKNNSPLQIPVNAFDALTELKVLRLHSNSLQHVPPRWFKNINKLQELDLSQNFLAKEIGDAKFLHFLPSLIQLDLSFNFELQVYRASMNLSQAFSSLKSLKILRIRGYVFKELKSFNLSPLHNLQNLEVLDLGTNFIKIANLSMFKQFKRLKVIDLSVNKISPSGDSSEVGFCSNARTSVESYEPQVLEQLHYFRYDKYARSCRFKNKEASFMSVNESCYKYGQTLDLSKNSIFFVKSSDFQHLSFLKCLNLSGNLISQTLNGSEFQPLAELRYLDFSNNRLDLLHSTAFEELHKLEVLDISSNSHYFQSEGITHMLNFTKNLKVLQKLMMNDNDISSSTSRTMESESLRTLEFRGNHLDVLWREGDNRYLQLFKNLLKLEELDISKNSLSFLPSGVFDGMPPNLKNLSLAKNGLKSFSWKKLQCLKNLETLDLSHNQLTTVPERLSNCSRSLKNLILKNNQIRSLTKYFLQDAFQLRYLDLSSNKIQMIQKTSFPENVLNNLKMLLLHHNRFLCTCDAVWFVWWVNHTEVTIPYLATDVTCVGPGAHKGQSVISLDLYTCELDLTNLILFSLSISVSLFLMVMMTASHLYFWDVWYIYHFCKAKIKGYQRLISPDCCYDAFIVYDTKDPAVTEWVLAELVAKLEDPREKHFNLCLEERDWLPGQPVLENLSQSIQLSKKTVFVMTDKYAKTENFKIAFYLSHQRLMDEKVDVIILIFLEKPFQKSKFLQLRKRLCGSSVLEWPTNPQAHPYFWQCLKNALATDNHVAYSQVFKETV
- METHOD DESCRIPTION: TLR7 inhibition reporter assay (HEK-Blue cells, SEAP reporter, gardiquimod stimulation)
- Assay type: cell-based
- SETTINGS: HEK-Blue cells overexpressing human TLR7, SEAP reporter, gardiquimod 7.5 μM
OBSERVABLE: IC50 (nM)
Just the number in nM, nothing appended.

Field: example entries. Status: answers known.
{"COMPOUND": "COc1cc(-c2[nH]c3ccc(CCC4CN(Cc5c[nH]nn5)C4)nc3c2C(C)C)cn2ncnc12", "IC50 [nM]": 8.4}
{"COMPOUND": "Cc1c(-c2[nH]c3ccc(N4C[C@H]5C[C@@H]4CN5C4COC4)nc3c2C(C)C)cn2ncnc2c1C", "IC50 [nM]": 6.4}
{"COMPOUND": "Cc1c(-c2[nH]c3ccc(N4C[C@@H]5C[C@H]4CN5CCC(=O)N(C)C)nc3c2C(C)C)cn2ncnc2c1C", "IC50 [nM]": 6}

Kindly review the next compound as well.
Lab entry: human TLR7 (Homo sapiens (Human), UniProt Q9NYK1) assay, compound CC(C)c1c(-c2cn(CC#N)c3ncccc23)[nH]c2ccc(C3CCC(NC4CCOCC4)CC3)nc12 (stereo not shown) , IC50 = 8.5

----------
Below is a list of entries, each paired with its recorded pIC50 value.
- TARGET SYSTEM: human TLR8 (Homo sapiens (Human), UniProt Q9NR97)
- Sequence (Q9NR97 27-1041): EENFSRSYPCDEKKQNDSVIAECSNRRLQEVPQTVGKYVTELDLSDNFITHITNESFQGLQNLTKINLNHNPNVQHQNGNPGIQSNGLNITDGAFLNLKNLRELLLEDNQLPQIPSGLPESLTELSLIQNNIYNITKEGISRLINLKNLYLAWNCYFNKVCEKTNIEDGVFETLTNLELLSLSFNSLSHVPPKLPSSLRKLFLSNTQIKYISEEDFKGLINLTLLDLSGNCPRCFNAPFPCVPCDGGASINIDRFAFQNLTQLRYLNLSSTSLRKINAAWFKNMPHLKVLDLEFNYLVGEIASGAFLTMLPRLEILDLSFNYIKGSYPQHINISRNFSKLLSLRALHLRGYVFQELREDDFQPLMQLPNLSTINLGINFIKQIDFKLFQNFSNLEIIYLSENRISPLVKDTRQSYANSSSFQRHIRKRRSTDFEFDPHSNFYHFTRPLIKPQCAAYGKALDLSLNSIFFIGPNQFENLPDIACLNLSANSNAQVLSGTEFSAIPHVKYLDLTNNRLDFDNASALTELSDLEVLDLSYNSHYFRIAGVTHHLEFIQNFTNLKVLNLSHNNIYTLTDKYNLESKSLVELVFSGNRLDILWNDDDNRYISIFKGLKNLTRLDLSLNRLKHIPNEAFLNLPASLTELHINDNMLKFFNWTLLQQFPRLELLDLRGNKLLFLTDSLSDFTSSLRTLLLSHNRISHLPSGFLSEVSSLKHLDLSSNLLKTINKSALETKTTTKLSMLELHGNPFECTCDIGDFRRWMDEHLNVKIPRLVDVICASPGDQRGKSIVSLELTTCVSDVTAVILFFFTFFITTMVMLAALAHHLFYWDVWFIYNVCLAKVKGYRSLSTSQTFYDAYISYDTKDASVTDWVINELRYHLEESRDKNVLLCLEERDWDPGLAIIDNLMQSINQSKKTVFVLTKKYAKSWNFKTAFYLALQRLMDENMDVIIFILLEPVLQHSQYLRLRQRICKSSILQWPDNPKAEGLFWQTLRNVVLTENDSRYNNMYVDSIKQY
- METHOD DESCRIPTION: TLR8 inhibition reporter assay (HEK-Blue cells, SEAP reporter, R848 stimulation);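 further: SEAP under an IFN-β minimal promoter carrying five NF-κB and AP-1 sites, 22 h at 37 °C, doses 0.05 nM–50 µM, inhibition scaled between agonist-plus-DMSO and reference-inhibitor wells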
- SETTINGS: read-out: TLR8 IC50; HEK-Blue cells, R848 15.9 μM
pIC50 (log units): -log10 of the concentration in mol/L.

{"GIVEN SMILES": "Cc1c(-c2[nH]c3ccc(C4CC5(C4)CN(C)C5)nc3c2C(C)C)cn2ncnc2c1C", "pIC50": 8.72}

Measured pIC50 of Cc1c(-c2[nH]c3ccc(N4C[C@@H](C)N(CCCS(C)(=O)=O)C[C@@H]4C)nc3c2C(C)C)cn2ncnc2c1C : 8.92

Record Cc1c(-c2[nH]c3ccc(C4CC5(C4)CN(C(C)C)C5)nc3c2C(C)C)cn2ncnc2c1C , field pIC50: 8.44

Per the record, Cc1c(-c2[nH]c3ccc(N4CCN(C(=O)CN(C)C)[C@H](C)C4)nc3c2C(C)C)cn2ncnc2c1C has pIC50 of 8.80

----------
- TARGET SYSTEM: human TLR9 (Homo sapiens (Human), UniProt Q9NR96)
- Sequence (Q9NR96 26-1032): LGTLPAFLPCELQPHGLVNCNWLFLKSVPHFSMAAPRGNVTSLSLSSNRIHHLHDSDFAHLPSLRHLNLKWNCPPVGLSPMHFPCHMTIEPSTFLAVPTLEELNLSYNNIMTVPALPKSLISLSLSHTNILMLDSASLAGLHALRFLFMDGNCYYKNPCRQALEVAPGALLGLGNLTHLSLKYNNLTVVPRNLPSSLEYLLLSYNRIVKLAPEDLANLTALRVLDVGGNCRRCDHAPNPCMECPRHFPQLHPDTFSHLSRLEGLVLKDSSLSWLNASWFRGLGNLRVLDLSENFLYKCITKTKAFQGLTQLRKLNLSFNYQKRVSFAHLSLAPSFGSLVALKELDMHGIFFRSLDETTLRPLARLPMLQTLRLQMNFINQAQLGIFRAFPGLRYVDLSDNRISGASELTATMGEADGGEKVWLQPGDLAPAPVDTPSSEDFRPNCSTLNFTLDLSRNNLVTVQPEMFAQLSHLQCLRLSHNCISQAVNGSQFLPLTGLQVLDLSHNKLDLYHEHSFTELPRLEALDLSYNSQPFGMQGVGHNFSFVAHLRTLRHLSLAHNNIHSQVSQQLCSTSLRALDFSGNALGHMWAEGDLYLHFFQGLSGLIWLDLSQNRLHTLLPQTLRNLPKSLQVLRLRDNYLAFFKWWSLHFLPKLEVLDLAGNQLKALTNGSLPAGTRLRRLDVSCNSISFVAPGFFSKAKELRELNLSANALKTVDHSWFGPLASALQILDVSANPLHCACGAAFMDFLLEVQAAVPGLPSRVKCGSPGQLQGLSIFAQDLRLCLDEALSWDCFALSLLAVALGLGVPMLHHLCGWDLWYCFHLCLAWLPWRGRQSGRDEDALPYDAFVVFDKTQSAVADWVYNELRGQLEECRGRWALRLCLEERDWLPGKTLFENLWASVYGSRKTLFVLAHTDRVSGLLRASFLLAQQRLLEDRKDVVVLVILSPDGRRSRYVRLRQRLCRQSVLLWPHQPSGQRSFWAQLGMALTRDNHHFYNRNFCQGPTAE
- METHOD DESCRIPTION: TLR9 inhibition reporter assay (HEK-Blue cells, SEAP reporter, ODN2006 stimulation);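 further: SEAP driven by IFN-β minimal promoter with five NF-κB and AP-1 sites, compounds 0.05 nM–50 µM in DMSO, 22 h, inhibition scaled between agonist plus DMSO and reference inhibitor wells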
- SETTINGS: read-out: TLR9 IC50; HEK-Blue cells overexpressing human TLR9, SEAP reporter, ODN2006 5 nM
OBSERVABLE: pIC50
For clarity, pIC50 is expressed as the negative log10 of concentration in mol/L.

Please review the entries below; each comes with its answer.
{"MOLECULE": "COc1cc(-c2[nH]c3ccc(CCC4CN(Cc5c[nH]nn5)C4)nc3c2C(C)C)cn2ncnc12", "pIC50": 6.75}
{"MOLECULE": "Cc1c(-c2[nH]c3ccc(N4C[C@@H]5C[C@H]4CN5C4CCOCC4)nc3c2C(C)C)cn2ncnc2c1C", "pIC50": 5.28}
{"MOLECULE": "Cc1c(-c2[nH]c3ccc(N4C[C@@H]5C[C@H]4CN5CCS(C)(=O)=O)nc3c2C(C)C)cn2ncnc2c1C", "pIC50": 4.83}

The reported value for Cc1c(-c2[nH]c3ccc(N4[C@@H]5CC[C@H]4CN(CCC(N)=O)C5)nc3c2C(C)C)cn2ncnc2c1C in terms of pIC50 is 4.83

Lab note: Cc1c(-c2[nH]c3ccc(N4C[C@@H]5C[C@H]4CN5CCCS(C)(=O)=O)nc3c2C(C)C)cn2ncnc2c1C gave pIC50 of 5.10

Recorded result, CCN(CCS(C)(=O)=O)C1CCC(c2ccc3[nH]c(-c4cn5ncnc5c(C)c4C)c(C(C)C)c3n2)CC1 (stereo not drawn) , pIC50: 5.69
